The measurements presented in this section are drawn from paper PMC11995724.

assay: in vitro; settings: human, hek293t cells
Classify: yes when viability at 48 h, 25 µM is strictly less than 60%; no when viability at 48 h, 25 µM is not.

Consider the worked cases shown below.
COc1ccc2ccccc2c1C=C(C#N)C(=O)N1CCCC1 [8-P12] :: no
CN(C)S(=O)(=O)c1ccccc1CNC(=O)CCl [4-J22] :: yes
CC(Cl)C(=O)NCCC1=CCCCC1 (stereo not shown) [6-E11] :: no
C=CC(=O)NC1CCCCC12CCCC2 (stereo not shown) [1-F16, N-{spiro[4.5]decan-6-yl}prop-2-enamide] :: no
C=CC(=O)NCc1ccc(C(=O)N2CCOC3(CCCC3)C2)cc1 [3-B05] :: no

## Input Lab log: compare recorded viability at 48 h, 25 µM with 60%; is it strictly lower for CN(C(=O)CCl)C(c1ccccc1)c1ccccc1 [5-H06] ?
## Output yes

## Input Lab log: compare recorded viability at 48 h, 25 µM with 60%; is it strictly lower for C=CC(=O)Nc1ccnn1Cc1cccc(Cl)c1 [1-N14] ?
## Output yes

## Input Lab log: compare recorded viability at 48 h, 25 µM with 60%; is it strictly lower for C=CC(=O)Nc1c(C)ccc(Cl)c1CO [1-O03] ?
## Output no

## Input Lab log: compare recorded viability at 48 h, 25 µM with 60%; is it strictly lower for C=CC(=O)N(CC)c1cccc(C)c1 [1-A10, N-ethyl-N-(3-methylphenyl)prop-2-enamide] ?
## Output no
